Hey, just so you know, these numbers are from PubChem BioAssay.

# Test system: HIV-1 integrase / human LEDGF/p75 complex
# Protocol Notes: inhibitors of HIV-1 IN-LEDGF/p75 DNA integration, confirmation, biochemical, TR-FRET (AID 1053136)
# Protocol Conditions: TR-FRET LEDGF/p75-dependent HIV-1 integration, at 3.7 µM
The list shows a part of the results. Activity calls are given as the source filed them. Cut-off read from the data, not from the text of the source: active = inhibition above about 14%; inactive = the rest.
Please reply with one of these outcomes: T (active), F (inactive)

Previously resolved entries follow.
Item Smiles | Class
O=C1NC(=O)N(Cc2ccco2)C(=O)/C1=C\c1ccc(-c2ccc(F)cc2)o1 | F
Cc1c(C(=O)O)cccc1-n1c(C)cc(/C=C2\C(=O)NC(=O)N(c3ccc4c(c3)OCO4)C2=O)c1C | T
CCOc1cccc(=NC2CCCCC2)c2c(C)[nH]c(C)c12 | F
CCOC(=O)c1c(N)n(Cc2ccccc2)c2nc3ccccc3nc12 | F

# input for lookup
Please share the test call associated with Cc1cc(/C=C2/C(=O)NC(=O)N(Cc3ccco3)C2=O)c(C)n1-c1ccc(C(=O)O)cc1 .
T
